Assay: qHTS assay for small molecules that induce genotoxicity in human embryonic kidney cells expressing luciferase-tagged ATAD5 - cell viability (AID 651634); note: nearly all actives have a fitted effect of over 25% in size
Conditions: HEK293T ATAD5-luc cells viability, CellTiter-Fluor, 15.5 h; series mostly up to 83.3 µM
Records with an inconclusive call do not appear. Active and inactive are the calls of the source. Calls come from the whole dose curve.
Field 'call' accepts active, inactive

Ask: Answer briefly: the call reported for `COc1c(C)c2c(c(O)c1C/C=C(\C)CCC(=O)O)C(=O)OC2` in this assay.
Result: active

Ask: I would be grateful if you could indicate the recorded call for `NNc1nc(-c2ccccc2)cs1` .
Result: active

Ask: What is the recorded call for this compound in the test? `CCCCCCCCCCn1cc[n+](CCCCCCCCCC)c1C`
Result: active

Ask: Per the records of this test, what outcome belongs to `Clc1ccc2cc3ccccc3cc2c1` ?
Result: inactive

Ask: Hi, sorry to bother you, what did the test record for `O=[N+]([O-])c1cc([N+](=O)[O-])c2ccc(S(=O)(=O)O)cc2c1O` ?
Result: active

----------
Assay: A CellTox Green Cytotoxicity Assay to monitor cytotoxicity in HepG2 cells - 8 hour (AID 1224890); note: nearly all actives have a fitted effect of over 45% in size
Settings: CellTox Green fluorescence; series mostly up to 76.8 µM
Records with an inconclusive call do not appear. Calls of active or inactive are those of the source. Calls follow the shape of the dose curve; as a rule, active = well fitted activation curve with a large enough effect in the repeat runs; inconclusive = weak or mixed curves; inactive = flat fitted curve, though single readings scatter.
Returns: one label drawn from active, inactive

The following compounds have reported results that may help.
compound	qualitative_label
Cc1onc(-c2c(Cl)cccc2Cl)c1C(=O)N[C@@H]1C(=O)N2[C@@H]1SC(C)(C)[C@@H]2C(=O)O	inactive
Nc1ccccc1O	inactive
COc1ccc(CN2CCN(C(c3ccc(F)cc3)c3ccc(F)cc3)CC2)c(OC)c1OC	inactive
OCCN1CCN(CC/C=C2/c3ccccc3Sc3ccc(C(F)(F)F)cc32)CC1	active
Clc1ccc2nsnc2c1NC1=NCCN1	inactive

Ask: What did the test return for `ON=C1CCCC1` ?
Result: inactive

Ask: Call for entry `Cc1cc(O)c(C(C)(C)C)cc1C(C)(C)C` :
Result: active

Ask: So what was the verdict on CCCCCCCCS(=O)C(C)Cc1ccc2c(c1)OCO2 (stereo unspecified) in this test?
Result: inactive

Ask: Recorded test call requested for `COc1ccc(C(=O)/C(Br)=C\C(=O)O)cc1`
Result: inactive

Ask: Please let me know the test result on file for `CCCCCCCCCCC=O` .
Result: inactive

Ask: Returns: the outcome recorded for `CS(=O)(=O)CCNCc1ccc(-c2ccc3ncnc(Nc4ccc(OCc5cccc(F)c5)c(Cl)c4)c3c2)o1` in this assay.
Result: inactive

Ask: What call does the record list for `O=C(Oc1ccccc1)c1ccccc1C(=O)Oc1ccccc1` ?
Result: inactive

Ask: Give the logged outcome of this assay for the following compound: `CCC(N)(CO)CO`
Result: inactive

Ask: Field: outcome | Entry: `O=C(O)c1cc(O)c2c(c1)C(=O)c1cccc(O)c1C2=O`
Result: inactive

----------
Experiment: qHTS assay to identify small molecule agonists of the progesterone receptor (PR) signaling pathway - cell viability counter screen (AID 1346799); note: nearly all actives have a fitted effect of over 45% in size
Settings: PR-UAS-bla HEK293T viability, CellTiter-Glo luminescence, 16 h; series mostly up to 92.4 µM
Inconclusive results are not listed. Active and inactive are the calls of the source. The call rests on the fitted dose curve.
Parameter call: string, one of active, inactive

Worked examples follow.
molecule	qualitative_label
CC(C)(C)C1CCC(CC2=C(O)c3ccccc3C(=O)C2=O)CC1 (stereo not given)	inactive
C[n+]1cc2c3c(ccc2c2ccc4cc5c(cc4c21)OCO5)OCO3	active
O=C(c1ccc(F)cc1)C1CCN(CCn2c(=O)[nH]c3ccccc3c2=O)CC1	inactive
CCN(Cc1cccnc1)C(=O)c1cccc(Cl)c1[C@]1(C)C(=O)N(Cc2ccc(OC)cc2OC)c2ccc(Cl)cc21	inactive

Here's the next entry for you.
Ask: Just curious, what result did CCC(C)(C)C1CCCCC1OC(C)=O (stereo not given) get here?
Result: inactive
